Molecular target: DNA repair protein RAD52 homolog (Homo sapiens) (UniProt P43351)
Sequence (P43351 whole entry, looked up): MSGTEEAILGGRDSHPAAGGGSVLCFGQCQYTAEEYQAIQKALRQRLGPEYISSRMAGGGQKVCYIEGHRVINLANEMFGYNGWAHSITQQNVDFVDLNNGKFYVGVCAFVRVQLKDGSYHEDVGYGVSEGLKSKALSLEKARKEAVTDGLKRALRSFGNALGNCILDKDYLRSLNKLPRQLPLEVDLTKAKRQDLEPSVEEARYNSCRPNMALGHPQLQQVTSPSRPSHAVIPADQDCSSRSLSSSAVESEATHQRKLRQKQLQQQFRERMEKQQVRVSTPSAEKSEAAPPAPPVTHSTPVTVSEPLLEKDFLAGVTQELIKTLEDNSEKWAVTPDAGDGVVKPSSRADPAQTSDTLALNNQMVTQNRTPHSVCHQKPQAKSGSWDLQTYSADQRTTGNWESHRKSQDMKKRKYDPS
Assay: RAD52 DNA annealing inhibitors, primary screen, biochemical, FRET, single point, set 2 (AID 651710)
Conditions: recombinant RAD52 DNA annealing, FRET fluorescence; at 18.7 µM; active compounds read high
Out of some 360,000 compounds screened, about 1,600 (0.44%) were called active. The sample as a whole holds a higher share of actives than the screen did.
OUTCOME_MEASURE: inhibition (%)
One number for each entry, in %.

[[record]]
compound = "C[C@@H]1CCCCO[C@H](CN(C)Cc2ccccc2)[C@H](C)CN([C@@H](C)CO)C(=O)c2cc(NS(=O)(=O)c3ccccc3)ccc2O1"
outcome_measure = "inhibition"
measurement_unit = "%"
observed_result = 7.51


Hi, could you look up inhibition for each item in my list?
1. C[C@@H]1CCCCO[C@H](CN(C)C(=O)CCCN(C)C)[C@H](C)CN([C@@H](C)CO)C(=O)c2cc(NS(=O)(=O)c3ccc(Cl)cc3)ccc2O1
2. C[C@@H]1CCCCO[C@H](CN(C)C(=O)CCCN(C)C)[C@H](C)CN([C@@H](C)CO)C(=O)c2cc(NS(=O)(=O)c3ccccc3)ccc2O1
3. C[C@H](CO)N1C[C@H](C)[C@@H](CN(C)Cc2ccncc2)OCCCC[C@H](C)Oc2ccc(NS(=O)(=O)c3ccc(Cl)cc3)cc2C1=O
4. C[C@@H]1CCCCO[C@H](CN(C)S(=O)(=O)c2cccs2)[C@H](C)CN([C@@H](C)CO)C(=O)c2cc(NS(=O)(=O)c3cccs3)ccc2O1

[52.5, 13.8, -15.9, -2.6]

Hi, could you look up inhibition for each item in my list?
1. C[C@@H]1CN([C@H](C)CO)C(=O)c2cccc(NC(=O)Nc3ccc4c(c3)OCO4)c2O[C@H]1CN(C)S(=O)(=O)c1ccc(Cl)cc1
2. CCC1Oc2ccccc2N(CC(=O)NCCCN2CCN(CC)CC2)C1=O (centres undefined)
3. C[C@@H]1CN([C@H](C)CO)C(=O)c2cc(NS(=O)(=O)c3ccc(Cl)cc3)ccc2O[C@@H](C)CCCCO[C@H]1CN(C)Cc1ccccc1

[-13.7, -5.96, 64.2]

Hi, could you look up inhibition for each item in my list?
1. C/C=C/c1ccc(C2[C@H]3CNC[C@@H]2N3Cc2cccc(OC)c2)cc1 (some centres undefined)
2. C[C@@H]1CN([C@@H](C)CO)C(=O)c2cc(NS(=O)(=O)c3cn(C)cn3)ccc2O[C@@H](C)CCCCO[C@H]1CN(C)S(=O)(=O)c1cccs1
3. CC(C)CC#Cc1ccc2c(c1)O[C@H](CN(C)S(=O)(=O)c1cccc(F)c1)[C@@H](C)CN([C@@H](C)CO)S2(=O)=O
4. CN1CCN(CCCNC(=O)c2ccc(/C=C3\Oc4ccccc4N(Cc4ccc(Cl)cc4)C3=O)cc2)CC1
5. C[C@@H]1CCCCO[C@H](CN(C)Cc2ccccc2)[C@H](C)CN([C@H](C)CO)C(=O)c2cc(NS(=O)(=O)c3ccc(Cl)cc3)ccc2O1
6. C[C@@H]1CN([C@H](C)CO)C(=O)c2cc(NS(=O)(=O)c3cccs3)ccc2O[C@@H](C)CCCCO[C@@H]1CN(C)S(=O)(=O)c1cccs1

-8.08
99.3
10.9
94.8
53.1
-0.96

====

Molecular target: DNA repair protein RAD52 homolog (Homo sapiens)
Assay: RAD52 DNA annealing inhibitors, primary screen, biochemical, FRET, single point, set 2 (AID 651710)
Conditions: recombinant RAD52 DNA annealing, FRET fluorescence; at 18.7 µM; active compounds read high
Screen size: about 360,000 compounds; about 1,600 (0.44%) were called active. Shown is part of a subset that was picked to be rich in actives.
OUTCOME_MEASURE: inhibition (%)
Answers are plain numbers, in %.

[[record]]
molecule = "Cc1ccc(-c2ccc3c(c2)O[C@@H](CN(C)C(=O)CC2CC2)[C@@H](C)CN([C@@H](C)CO)S3(=O)=O)cc1"
outcome_measure = "inhibition"
observed_result = 18.4


Hi, could you look up inhibition for each item in my list?
1. CC(=O)c1cccc(-c2cnc3c(NC=O)cc(-c4ccccc4Oc4ccccc4)cn23)c1
2. COC(=O)Cc1nnn2c1[C@H](C)[C@@H](OC)c1cc(Br)ccc1-2
3. C[C@@H]1CCCCO[C@@H](CN(C)C)[C@@H](C)CN([C@H](C)CO)C(=O)c2cc(NC(=O)c3ccncc3)ccc2O1
4. CCc1ccc(S(=O)(=O)NCC(O)COc2ccc(OC)cc2)cc1 (stereo unspecified)

1. -29.2
2. -4.62
3. -19.4
4. -8.48

Hi, could you look up inhibition for each item in my list?
1. CC(=O)N(C)C[C@@H]1Oc2cc(-c3ccncc3)ccc2S(=O)(=O)N([C@@H](C)CO)C[C@H]1C
2. O=C(NC[C@H]1CC[C@H]2[C@H](CN2Cc2cccc(Cl)c2)O1)C1CC1
3. O=C1Nc2cc(C(=O)N3CCC(N4CCCCC4)CC3)ccc2S/C1=C\c1ccccc1
4. CCCc1ccc(OCC(O)CN2CCN(C(=O)OCC)CC2)cc1 (stereo unspecified)
5. O=C(NCCc1ccccn1)c1cc(-c2ccc(Cl)cc2)nc2ccccc12
6. Cc1onc(-c2ccccc2)c1C(=O)N=C(N)c1ccc(Cl)cc1

1. 3.3
2. -6.18
3. 39.6
4. -8.19
5. -15.9
6. -19.5

Hi, could you look up inhibition for each item in my list?
1. CSc1ccccc1NC(=O)COC(=O)CCCOc1ccc(C)cc1
2. COc1ccc(NC(=O)N(C)C[C@@H]2Oc3c(NS(C)(=O)=O)cccc3C(=O)N([C@H](C)CO)C[C@H]2C)cc1
3. COc1ccc(-c2ccc([C@@H]3[C@@H](CO)N4CCCCN(C(=O)NC(C)C)C[C@H]34)cc2)cc1
4. CO[C@@H]1CN(C)C(=O)c2cc(NC(=O)Nc3cc(F)ccc3F)ccc2OC[C@H](C)N(C)C[C@@H]1C
5. Cn1cnc(S(=O)(=O)N[C@H]2C=C[C@H](CC(=O)NCC3CCCCC3)O[C@@H]2CO)c1
6. COCC(=O)N1CC(=O)N2[C@H](C1)[C@H](c1ccc(C#CC3CCCCC3)cc1)[C@@H]2CO
7. C[C@H](CO)N1C[C@H](C)[C@H](CN(C)C(=O)Nc2ccc(C(F)(F)F)cc2)Oc2ccc(NS(C)(=O)=O)cc2CC1=O
8. CO[C@H]1CN(C)C(=O)c2ccc(NC(=O)c3cccc(F)c3)cc2OC[C@@H](C)N(C(C)=O)C[C@@H]1C

1. -13.4
2. 1.83
3. 0.301
4. 22.6
5. 2.08
6. 6.1
7. -1.01
8. 3.49

====

Biological target: DNA repair protein RAD52 homolog (Homo sapiens) (UniProt P43351)
Assay: RAD52 DNA annealing inhibitors, primary screen, biochemical, FRET, single point, set 2 (AID 651710)
Settings: recombinant RAD52 DNA annealing, FRET fluorescence; at 18.7 µM; active compounds read high
The whole screen tested about 360,000 compounds, of which about 1,600 (0.44%) were called active. Many of the other results were omitted from the sample, so actives are more common in it than they were.
I'd appreciate it if you could supply inhibition values for the items below.
Numbers only, in %.

[[record]]
compound = "C[C@H](CO)N1C[C@H](C)[C@H](CN(C)C(=O)Nc2ccc3c(c2)OCO3)Oc2ccc(NC(=O)Nc3ccccc3)cc2CC1=O"
observed_result = -4.77

[[record]]
compound = "COc1ccccc1C(=O)N1O[C@]23C=C[C@]14C[C@@H](O)CC[C@]4(C)C2CC[C@]1(C)[C@@H]([C@H](C)/C=C/[C@H](C)C(C)C)CC[C@H]13 (stereo partly specified)"
observed_result = -15.6

[[record]]
compound = "COc1cccc(-c2cnc3c(c2)C(=O)N([C@@H](C)CO)C[C@@H](C)[C@H](CN(C)C(=O)CN(C)C)O3)c1"
observed_result = 18.6


Hi, could you look up inhibition for each item in my list?
1. CC(=O)N(C)C[C@H]1Oc2ncc(C#CC3(O)CCCC3)cc2C(=O)N([C@@H](C)CO)C[C@@H]1C
2. C[C@H]1CCCCO[C@H](CN(C)S(=O)(=O)c2ccc(F)cc2)[C@@H](C)CN([C@@H](C)CO)C(=O)c2cc(NS(=O)(=O)c3cn(C)cn3)ccc2O1
3. O=C(NCCCN1CCOCC1)c1cn(-c2ccccc2)nc1-c1ccc(F)cc1
4. COc1cccc(C(=O)Nc2ccc3c(c2)C(=O)N(C)C[C@@H](OC)[C@H](C)CN(C(=O)C2CCOCC2)[C@H](C)CO3)c1
5. CN(C)CC(=O)N1[C@H](CO)[C@@H](c2ccc(-c3cccc(C(=O)N(C)C)c3)cc2)[C@@H]1C#N
6. O=C(C[C@@H]1C[C@@H]2c3cc(NC(=O)Nc4ccccc4F)ccc3O[C@@H]2[C@H](CO)O1)NCCc1ccccc1
7. CO[C@H]1CN(C)C(=O)c2ccc(NC(=O)Nc3ccccc3)cc2OC[C@@H](C)N(C(=O)CC2CC2)C[C@@H]1C

1: 9.64; 2: -9.68; 3: -2.27; 4: -0.027; 5: -31.9; 6: 2.98; 7: 7.81

Hi, could you look up inhibition for each item in my list?
1. Fc1ccc(-c2ccc(NCCN3CCOCC3)nn2)cc1
2. CN(CC1CCCO1)S(=O)(=O)c1ccc(C(=O)Nc2ccc([N+](=O)[O-])cc2)cc1 (stereo unspecified)

-7.71
-8.13

Hi, could you look up inhibition for each item in my list?
1. O=C(C1CCCC1)N1[C@H](CO)[C@H]2c3ccccc3N(S(=O)(=O)c3ccccc3)C[C@H]21
2. CCCNC(=O)C[C@H]1C[C@H]2c3cc(NC(=O)NC4CCCCC4)ccc3O[C@H]2[C@H](CO)O1
3. CO[C@@H]1CN(C)C(=O)c2ccc(NC(=O)C3CC3)cc2OC[C@@H](C)N(Cc2ccncc2)C[C@@H]1C
4. CC(Nc1nc(N2CCN(CCO)CC2)nc2ccccc12)c1ccccc1 (stereo unspecified)

[-8.44, 3.19, 17, -10.7]
